Biological target: T1, MDMX (In-house, 40 kD) (UniProt O15151)
T1 sequence (looked up): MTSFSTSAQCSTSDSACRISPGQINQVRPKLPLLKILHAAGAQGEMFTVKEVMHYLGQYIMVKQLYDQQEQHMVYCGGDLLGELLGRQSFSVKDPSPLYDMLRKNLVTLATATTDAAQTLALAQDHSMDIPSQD
Experiment: competitive fluorescence polarization, MDMX with FAM-labeled linear peptide; graded scale of paragraph 458
Bridges are numbered along the chain shown (N, C = ends). [ ]: non-standard residue; d: D form. pY = N[C@@H](Cc1ccc(OP(=O)(O)O)cc1)C(=O)O; R8 = C=CCCCCCC[C@@](C)(N)C(=O)O; S5 = C=CCCC[C@](C)(N)C(=O)O
reported_metric: Ki

Determine its reported Ki: Ac-LTF[R8]E[pY]WAQL[S5]AAAAA[dA]-NH2 (staple 4-11) [peptidomimetic macrocycle SP615, Ac-LTF$r8EpYWAQL$AAAAAa-NH2] < 10 nM
